# target: CLK2 kinase (Homo sapiens, UniProt P49760)
# Sequence (P49760 whole entry): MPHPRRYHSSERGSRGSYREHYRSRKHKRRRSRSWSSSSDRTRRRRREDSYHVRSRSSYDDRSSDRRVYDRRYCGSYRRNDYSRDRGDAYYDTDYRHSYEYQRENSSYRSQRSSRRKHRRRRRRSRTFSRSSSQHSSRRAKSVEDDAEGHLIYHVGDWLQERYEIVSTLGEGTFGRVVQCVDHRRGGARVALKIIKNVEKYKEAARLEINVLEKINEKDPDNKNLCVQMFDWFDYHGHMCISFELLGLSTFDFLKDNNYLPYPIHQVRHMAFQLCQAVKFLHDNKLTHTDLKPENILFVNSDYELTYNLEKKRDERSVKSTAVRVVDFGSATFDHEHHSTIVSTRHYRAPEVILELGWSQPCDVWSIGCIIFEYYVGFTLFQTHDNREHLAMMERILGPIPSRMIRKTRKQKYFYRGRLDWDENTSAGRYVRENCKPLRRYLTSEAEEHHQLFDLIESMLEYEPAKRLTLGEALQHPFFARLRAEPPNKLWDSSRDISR
# assay: CLK2 kinase activity assay (Z-lyte FRET);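 also: FRET read-out as coumarin to fluorescein emission ratio, unphosphorylated peptide as 0% and phosphorylated peptide as 100% controls, duplicate reactions, non-linear regression fit of dose-response curves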
# measurementSetup: Z-lyte Ser/Thr 6 peptide, 60 μM ATP, 1 h at room temperature
endpoint: pEC50
Answer as the number alone; pEC50 is minus log10 of concentration in mol/L.

Ask: Query for CLK2 kinase (Homo sapiens, UniProt P49760): what pEC50 does the record show for CC(C)C(=O)Nc1cncc(-c2ccc3[nH]nc(-c4nc5c(-c6ccccc6F)cncc5[nH]4)c3n2)c1 [compound 174] ?
Reply: 8.40

Ask: Hello, I am looking for reported pEC50 with CLK2 kinase (Homo sapiens, UniProt P49760) for CC(C)CC(=O)Nc1cncc(-c2ccc3[nH]nc(-c4nc5c(-c6cc(F)cc(NCCN(C)C)c6)cncc5[nH]4)c3c2)c1 [compound 281] . Could you help?
Reply: 8.22

Ask: Reported pEC50 for CLK2 kinase (Homo sapiens, UniProt P49760), given CN(C)c1cncc(-c2cc3c(-c4cc5cnccc5[nH]4)n[nH]c3cn2)c1 [compound 441] ?
Reply: 8.30

Ask: # value lookup — system CLK2 kinase (Homo sapiens, UniProt P49760), readout pEC50, item Nc1ncc(NC(=O)c2n[nH]c3ccc(-c4cncc(CN5CCCCC5)c4)cc23)cn1 [compound 96]
Reply: 9.00
